Test system: PC-3 prostate
Test: NCI-60 one-dose screen, 48 h (100 = growth as untreated, 0 = no growth, -100 = all killed)
Conditions: 10 µM unless noted
This is part of a sample that, as a whole, favours compounds with a hit. Of some 83,000 tested, about 20% had one in any assay.
Label rule, in plain words: growth of 60% and up is t, under 60% is f.

Example entries and their recorded answers appear below.
Nc1cc(-c2ccc(Cl)cc2)nn1-c1nc(-c2ccc(Br)cc2)cs1    t
O=S(=O)(c1ccc(NCSc2nc3ccccc3s2)cc1)c1ccc(NCSc2nc3ccccc3s2)cc1    t
COc1ccc(/C=C2/CCc3cc4ccc(OC)cc4[o+]c32)c(O)c1    f
CC(=O)CC(=O)c1ccccc1.[Cu+2]    t

input: Quick check, growth >= 60%? CS(=O)(=O)Nc1cc(-c2ccc3ncnc(Nc4cccc(Cl)c4)c3c2)cnc1Cl
output: f

input: Quick check, growth >= 60%? COc1ccc(Nc2nccc(Nc3ccc4[nH]ncc4c3)n2)cc1
output: f

input: Quick check, growth >= 60%? O=C(Nc1ncc(Cc2ccc(Cl)cc2)s1)c1ccc2c(c1)OCCO2
output: f

src = PubChem BioAssay (NCI)
